Provenance of the data: patent US20250163167A1

# SYSTEM NAME: T1, hIL10Ra-his (Sino Biological, Catalog#10419) (human, UniProt Q13651 22-235)
# T1 construct: Bought; also called Sino Biological cat#10419-H08H; not shown: C-terminal poly-His tag
# T1 sequence: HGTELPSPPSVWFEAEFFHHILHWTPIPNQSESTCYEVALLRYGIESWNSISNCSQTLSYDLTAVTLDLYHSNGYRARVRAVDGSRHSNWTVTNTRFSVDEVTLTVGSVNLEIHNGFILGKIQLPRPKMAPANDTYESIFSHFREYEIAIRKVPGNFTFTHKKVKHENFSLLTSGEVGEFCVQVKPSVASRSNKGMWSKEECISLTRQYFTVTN
# TEST DESCRIPTION: SPR Biacore T200; mono-Fc VHH captured on Protein A chip, hIL10Ra-his analyte; 1:1 Langmuir fit
ATTRIBUTE MEASURED: kon

Noted for hIL-10Ra_VHH9 Mono-Fc (Fc fusion, Mono-Fc VHH captured on Protein A; not shown: mono-Fc part) QVQLQESGGGSVQAGGSLRLSCAVSGYAYSTYCMGWFRQAPGKEREGVAAIDSGGSTSYADSVKGRFTISKDNAKNTLYLRMNSLKPEDTAMYYCAAVPPPPDGGSCLFLGPEIKVSKADFRYWGQGTQVTVSS : its kon reads 99700 M⁻¹ s⁻¹

Record hIL-10Ra_VHH12 Mono-Fc (Fc fusion, Mono-Fc VHH captured on Protein A; not shown: mono-Fc part) QVQLQESGGGSVQAGGSLRLSCTVSGYTYSSNCMGWFRQAPGKEREGVATIYTGGGNTYYADSVKGRFTISQDNAKNTVYLQMNNLKPEDTAMYYCAAEPLSRVYGGSCPTPTFDYWGQGTQVTVSS . Reported kon: 154000 M⁻¹ s⁻¹

Sure, the documented kon for hIL-10Ra_VHH10 Mono-Fc (Fc fusion, Mono-Fc VHH captured on Protein A; not shown: mono-Fc part) QVQLQESGGGSVQAGGSLRLSCAASRYLYSIDYMAWFRQSPGKEREPVAVIYTASGATFYPDSVKGRFTISQDNAKMTVYLQMNSLKSEDTAMYYCAAVRKTDSYLFDAQSFTYWGQGTQVTVSS is 104000 M⁻¹ s⁻¹

Entry hIL-10Ra_VHH17 Mono-Fc (Fc fusion, Mono-Fc VHH captured on Protein A; not shown: mono-Fc part) QVQLQESGGGSVQAGGSLRLSCAASGYSNCSYDMTWYRQAPGKEREFVSAIHSDGSTRYADSVKGRFFISQDNAKNTVYLQMNSLKPEDTAMYYCKTDPLHCRAHGGSWYSVRANYWGQGTQVTVSS , kon reported as 327000 M⁻¹ s⁻¹

Measured kon, hIL-10Ra_VHH6 Mono-Fc (Fc fusion, Mono-Fc VHH captured on Protein A; not shown: mono-Fc part) QVQLQESGGGSVQAGGSLRLSCAASRFTYSSYCMGWFRQAPGKEREGVASIDSDGSTSYTDSVKGRFTISKDNAKNTLYLQMNSLKPEDTAMYYCALDLMSTVVPGFCGFLLSAGMDYWGKGTQVTVSS : 106000 M⁻¹ s⁻¹
